# assay system: T1, human OX40 on cells (CHO-K1/hu OX40) (human, UniProt P43489 29-277)
# T1 construct: whole, on cells; Also used here for OX40 on the HEK293/OX40/NF-kb reporter cells and on human T cells in the functional assays; also called CHO-K1/OX40; human OX40 cells
# T1 sequence (looked up): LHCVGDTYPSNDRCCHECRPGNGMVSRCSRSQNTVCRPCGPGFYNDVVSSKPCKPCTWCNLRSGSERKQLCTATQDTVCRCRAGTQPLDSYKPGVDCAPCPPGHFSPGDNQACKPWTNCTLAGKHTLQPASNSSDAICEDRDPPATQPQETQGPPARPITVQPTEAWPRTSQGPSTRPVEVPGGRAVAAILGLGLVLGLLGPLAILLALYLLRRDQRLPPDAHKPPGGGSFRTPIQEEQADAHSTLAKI
# assay: FACS, CHO-K1/hu OX40 cells
observation type: Maximum MFI (MFI)
# number only, unit MFI dropped from output

1. PR002062 (antibody, human IgG1, V domains shown, no light chain; also called anti-OX40 HCAb antibody) VH: EVQLLESGGGLVQPGGSLRLSCAASGFTFSSYAMSWVRQAPGKGQEWVSAISGSGGSTFYADSVRGRFTISRDNSKNTLYLQMSSLRAEDTAVYYCANGMTGTTDVDYWGQGTLVTVSS	1900

PR002076 (antibody, human IgG1, V domains shown, no light chain; also called anti-OX40 HCAb antibody) VH: EVQLLESGGGLVQPGGSLRLSCAASGFTFSSYAMSWVRQAPGKGLEWVSAISGSGGNTYYADSVRGRFTISRDNSKNTLYLQMNSLRAEDTAVYYCANGMTGTTDVDYWGQGTRVTVSS has a reported Maximum MFI of 1380

PR002063 (antibody, human IgG1, V domains shown, no light chain; also called anti-OX40 HCAb antibody) VH: EVQLLESGGGLVQPGGSLRLSCAASGFTFSSYAMSWVRQAPGRGLEWVSAISGGGGSTFYADSVRGRFTISRDNSKNTLYLQMSSLRAEDTAVYYCANGMTGTTDVDYWGQGTRVTVSS has a reported Maximum MFI of 2240

PR002061 (antibody, human IgG1, V domains shown, no light chain; also called anti-OX40 HCAb antibody) VH: EVQLLESGGGLVQPGGSLRLSCAASGFTFSSYAMSWVRQAPGKGLEWVSAISGRGGSTYYADSVRGRFTISRDNSKNTLYLQMNSLRAEDTAVYYCANGMTGTTDVDYWGQGTLVTVSS has a reported Maximum MFI of 1740

PR002068 (antibody, human IgG1, V domains shown, no light chain; also called anti-OX40 HCAb antibody) VH: EVQLLESGGGLVQPGGSLRLSCAASGFSFSSYAMTWVRQAPGKGLEWVSAISGGGGSIFYADSVRGRFTISRDNSKNTLYLQMNSLRAEDTAVYYCANGMTGSTDVDYWGQGTQVTVSS has a reported Maximum MFI of 2130

PR002059 (antibody, human IgG1, V domains shown, no light chain; also called anti-OX40 HCAb antibody) VH: EVQLLESGGGLVQPGGSLRLSCVVSGLTFSSYAMSWVRQAPGKGREWVSAISGRGGSTFYADSVRGRFTISRDNSKNTLYLQMNSLRAEDTAVYYCANGMTGSTDVDYWGQGTLVTVSS has a reported Maximum MFI of 3630

Provenance of the data: patent US20230295324A1
